Hello, the source for this data is patent US3984415A, in case you need it.

Test system: dd-strain male mice
Settings: p.o., 72 hours
Could you please report measured acute toxicity (lethal dose) for the items listed next?

Some solved cases for reference:
Chem Smiles: O=c1c2cccnc2n(-c2cccc([N+](=O)[O-])c2)c(=O)n1CCF
Quantity Measured: acute toxicity (lethal dose)
Result: 2000 mg/kg
--
Chem Smiles: CCOC(=O)Cn1c(=O)c2cccnc2n(-c2cccc([N+](=O)[O-])c2)c1=O
Quantity Measured: acute toxicity (lethal dose)
Result: > 2000 mg/kg
--
Chem Smiles: O=C(O)Cn1c(=O)c2cccnc2n(-c2cccc([N+](=O)[O-])c2)c1=O
Quantity Measured: acute toxicity (lethal dose)
Result: > 2000 mg/kg

input: Given the entry CC(C)Cn1c(=O)c2cccnc2n(-c2cccc([N+](=O)[O-])c2)c1=O , report its measured acute toxicity (lethal dose).
output: > 2000 mg/kg

====

Tested on: dd-strain male mice
Conditions: i.p., 72 hours
Quantity Measured: acute toxicity (lethal dose)

For each listed entry, give its acute toxicity (lethal dose).
1. CCCn1c(=O)c2cccnc2n(-c2cccc([N+](=O)[O-])c2)c1=S [Compound 35]
2. O=C(O)Cn1c(=O)c2cccnc2n(-c2cccc([N+](=O)[O-])c2)c1=O [Compound 26]
3. Cn1c(=O)c2cccnc2n(-c2cccc([N+](=O)[O-])c2)c1=S [Compound 33]
4. O=C(O)c1ccccc1Nc1cccc(C(F)(F)F)c1 [flufenamic acid, reference compound]
5. CCn1c(=O)c2cccnc2n(-c2cccc([N+](=O)[O-])c2)c1=S [Compound 34]
6. CCCn1c(=O)c2cccnc2n(-c2cccc([N+](=O)[O-])c2)c1=O [Compound 4]

output:
1. > 1000 mg/kg
2. > 1000 mg/kg
3. > 1000 mg/kg
4. 300 to 1000 mg/kg
5. > 1000 mg/kg
6. 1000 mg/kg

For each listed entry, give its acute toxicity (lethal dose).
1. CCOC(=O)Cn1c(=O)c2cccnc2n(-c2cccc([N+](=O)[O-])c2)c1=O [Compound 27]
2. Cn1c(=O)c2cccnc2n(-c2cccc(Cl)c2)c1=O [--CH3, reference compound]
3. CCCn1c(=O)c2cccnc2n(-c2cccc(Br)c2)c1=O [--CH2 CH2 CH3, reference compound]
4. O=c1c2cccnc2n(-c2cccc([N+](=O)[O-])c2)c(=O)n1CCc1ccccc1 [Compound 31]
5. Cc1c(N(C)C)c(=O)n(-c2ccccc2)n1C [aminopyrine, reference compound]
6. O=c1c2cccnc2n(-c2cccc([N+](=O)[O-])c2)c(=O)n1CCCO [Compound 19]

output:
1. 1000 mg/kg
2. > 1000 mg/kg
3. > 1000 mg/kg
4. > 1000 mg/kg
5. 100 to 300 mg/kg
6. > 1000 mg/kg

For each listed entry, give its acute toxicity (lethal dose).
1. CC(C)Cn1c(=O)c2cccnc2n(-c2cccc([N+](=O)[O-])c2)c1=O [Compound 7]
2. O=c1c2cccnc2n(-c2cccc([N+](=O)[O-])c2)c(=O)n1CCCl [Compound 14]
3. CC(C)n1c(=O)c2cccnc2n(-c2cccc([N+](=O)[O-])c2)c1=O [Compound 5]

output:
1. 1000 mg/kg
2. > 1000 mg/kg
3. > 1000 mg/kg

For each listed entry, give its acute toxicity (lethal dose).
1. CCOCCn1c(=O)c2cccnc2n(-c2cccc([N+](=O)[O-])c2)c1=O [Compound 23]
2. O=C(Cn1c(=O)c2cccnc2n(-c2cccc([N+](=O)[O-])c2)c1=O)c1ccc(Cl)cc1 [O --CH2 CO]
3. CC(=O)OCCn1c(=O)c2cccnc2n(-c2cccc([N+](=O)[O-])c2)c1=O [Compound 21]
4. O=c1c2cccnc2n(-c2cccc([N+](=O)[O-])c2)c(=O)n1CC(F)(F)F [Compound 16]
5. C#CCn1c(=O)c2cccnc2n(-c2cccc([N+](=O)[O-])c2)c1=O [Compound 12]
6. CCn1c(=O)c2cccnc2n(-c2cccc(C(F)(F)F)c2)c1=O [--C2 H5, reference compound]
7. O=c1c2cccnc2n(-c2cccc([N+](=O)[O-])c2)c(=S)n1CC(F)(F)F [Compound 39]
8. O=c1c2cccnc2n(-c2cccc([N+](=O)[O-])c2)c(=O)n1CCO [Compound 18]

output:
["> 1000 mg/kg", "> 1000 mg/kg", "> 1000 mg/kg", "> 1000 mg/kg", "> 1000 mg/kg", "600 mg/kg", "> 1000 mg/kg", "> 1000 mg/kg"]

====

Could you please report measured inhibition in vivo at 50 mg/kg for the items listed next?
Assay: Anti-inflammatory effect (carrageenin edema of hind paw)
Assay type: in vivo, Wistar-strain male rats
Conditions: Rattus norvegicus, po; dose 50 mg/kg, orally, rats, 3 hours; read-out: anti-inflammatory effect (inhibition percentage of carrageenin edema)

Some solved cases for reference:
Compound: O=C(O)c1ccccc1Nc1cccc(C(F)(F)F)c1 [flufenamic acid, reference compound]
Quantity Measured: inhibition in vivo at 50 mg/kg
Result: 16 to 30%

Compound: CCCn1c(=O)c2cccnc2n(-c2cccc([N+](=O)[O-])c2)c1=O [Compound 4]
Quantity Measured: inhibition in vivo at 50 mg/kg
Result: 31 to 45%

Compound: O=c1c2cccnc2n(-c2cccc([N+](=O)[O-])c2)c(=O)n1Cc1ccccc1 [O --Ch2]
Quantity Measured: inhibition in vivo at 50 mg/kg
Result: 46 to 60%

For each listed entry, give its inhibition in vivo at 50 mg/kg.
1. O=c1c2cccnc2n(-c2cccc([N+](=O)[O-])c2)c(=O)n1CCCO [Compound 19]
2. CCn1c(=O)c2cccnc2n(-c2cccc([N+](=O)[O-])c2)c1=O [Compound 3]
3. Cn1c(=O)c2cccnc2n(-c2cccc(Cl)c2)c1=O [--CH3, reference compound]
4. O=c1c2cccnc2n(-c2cccc([N+](=O)[O-])c2)c(=O)n1CCF [Compound 15]
5. CCCn1c(=O)c2cccnc2n(-c2cccc([N+](=O)[O-])c2)c1=S [Compound 35]

output:
["46 to 60%", "> 61%", "46 to 60%", "> 61%", "16 to 30%"]

====

Tested on: dd-strain male mice
Settings: p.o., 72 hours
Quantity Measured: acute toxicity (lethal dose)

Some solved cases for reference:
Compound: O=c1c2cccnc2n(-c2cccc([N+](=O)[O-])c2)c(=O)n1CC(F)(F)F
Test Target: dd-strain male mice
acute toxicity (lethal dose): > 2000 mg/kg

Compound: O=c1c2cccnc2n(-c2cccc([N+](=O)[O-])c2)c(=O)n1CCCO
Test Target: dd-strain male mice
acute toxicity (lethal dose): > 2000 mg/kg

Compound: O=C(Cn1c(=O)c2cccnc2n(-c2cccc([N+](=O)[O-])c2)c1=O)c1ccc(Cl)cc1
Test Target: dd-strain male mice
acute toxicity (lethal dose): > 2000 mg/kg

For each listed entry, give its acute toxicity (lethal dose).
1. O=c1c2cccnc2n(-c2cccc([N+](=O)[O-])c2)c(=O)n1CCc1ccccc1
2. O=c1c2cccnc2n(-c2cccc([N+](=O)[O-])c2)c(=O)n1CCCl

output:
1: > 2000 mg/kg; 2: > 2000 mg/kg

====

Assay: Analgetic effect (acetic acid writhing syndrome)
Type: in vivo, dd-strain male mice
Conditions: Mus musculus, po; orally, mice, acetic acid writhing
Could you please report measured ED50 for the items listed next?
Give bare numbers, in mg/kg.

Chem Smiles: CC(C)=CCn1c(=O)c2cccnc2n(-c2cccc([N+](=O)[O-])c2)c1=O
Measured Number: 0.43
//
Chem Smiles: O=c1c2cccnc2n(-c2cccc([N+](=O)[O-])c2)c(=O)n1CCCl
Measured Number: 0.19
//
Chem Smiles: Cn1c(=O)c2cccnc2n(-c2cccc([N+](=O)[O-])c2)c1=O
Measured Number: 0.175

// next item, ED50 requested
input: Given the entry CCOCCn1c(=O)c2cccnc2n(-c2cccc([N+](=O)[O-])c2)c1=O , report its measured ED50.
output: 0.168

====

Test: Analgetic effect (acetic acid writhing syndrome)
Type: in vivo, dd-strain male mice
Conditions: Mus musculus, po; orally, mice, acetic acid writhing
Method: Each test compound suspended in 0.5 % tragacanth-saline solution was orally administered to dd-strain male mice (18-20 g). After one hour 0.6% acetic acid solution was intraperitoneally injected in a volume of 0.1 ml/10 g.
Quantity Measured: ED50 (mg/kg)
Answers are plain numbers, in mg/kg.

Some solved cases for reference:
Compound: CCCn1c(=O)c2cccnc2n(-c2cccc([N+](=O)[O-])c2)c1=O
ED50 [mg/kg]: 2.6
--
Compound: O=c1c2cccnc2n(-c2cccc([N+](=O)[O-])c2)c(=S)n1CC(F)(F)F
ED50 [mg/kg]: 0.23
--
Compound: CC(=O)OCCn1c(=O)c2cccnc2n(-c2cccc([N+](=O)[O-])c2)c1=O
ED50 [mg/kg]: 0.16
--
Compound: C#CCn1c(=O)c2cccnc2n(-c2cccc([N+](=O)[O-])c2)c1=O
ED50 [mg/kg]: 1.15
--
Compound: CCn1c(=O)c2cccnc2n(-c2cccc([N+](=O)[O-])c2)c1=O
ED50 [mg/kg]: 0.113
--
Compound: CCCCC1C(=O)N(c2ccccc2)N(c2ccccc2)C1=O [phenylbutazone, reference compound]
ED50 [mg/kg]: 290

// next item, ED50 requested
input: Given the entry O=c1c2cccnc2n(-c2cccc([N+](=O)[O-])c2)c(=O)n1CC(F)(F)F , report its measured ED50.
output: 1.28
